- System: L1210 leukemia ip in BDF1 mice, survival T/C
- TEST_SUMMARY: NCI In Vivo Anticancer Drug Screen. Data for tumor model L1210 Leukemia (intraperitoneal) in B6D2F1 (BDF1) mice
- CONDITIONS_USED: endpoint: mean survival time; dose: 75.0 mg/kg/injection; schedule: Q01DX001 (ip); vehicle: carboxymethylcellulose (CMC); higher = longer survival
Inconclusive results and toxic doses are left out.
Each entry below carries its reported T/C.

CC(=O)N(C1=C(Cl)C(=O)c2ccccc2C1=O)c1ccc(Cl)cc1 93 % of control

For record O=C1CCCCCCCS(=O)(=O)C1 the listed T/C is 112 % of control

For record O=C(CCl)Nc1ccccc1S(=O)(=O)F the listed T/C is 98 % of control

For record Cc1ccc2cc3c4ccccc4ccc3[n+](C)c2c1 the listed T/C is 100 % of control

###

- Tested on: L1210 leukemia ip in BDF1 mice, survival T/C
- TEST_SUMMARY: NCI In Vivo Anticancer Drug Screen. Data for tumor model L1210 Leukemia (intraperitoneal) in B6D2F1 (BDF1) mice
- CONDITIONS_USED: endpoint: mean survival time; dose: 25.0 mg/kg/injection; schedule: Q04DX003 (ip); vehicle: saline with Tween-80
Inconclusive results and toxic doses are left out. Rule as the data show it: active = T/C of 150% or more; inactive = T/C below 125%.
I would appreciate it if you answered using one of these outcomes: 1 for active, 0 for inactive

Would you please look over these solved cases?
MOLECULE	CAT
Nc1nc2ccccc2c(=O)[nH]1	0
CCN1C(=O)C2C3C=CC(C3)C2C1=O (stereo not given)	0
CC1=Nc2c([nH]cnc2=S)NN1	0
COC1CCC2=C(C1)C(=O)CC1c3ccccc3CCN21 (stereo not given) (tested in a mixture with another compound)	0
CCOC(OCC)c1cc[n+](CCc2ccc(OC)c(OC)c2)cc1	0
Cc1nc(N)c(N)nc1C	0

Challenge: How did this test come out for CC[C@H]1CN2CCc3cc(OC)c(OC)cc3[C@@H]2C[C@@H]1C[C@H]1NCCc2cc(OC)c(OC)cc21 ?
Response given: 1

Challenge: How did this test come out for O=C(COc1ccc(Cl)c(Cl)c1)N(Cc1ccccc1)Cc1ccc[n+](Cc2cccc(Cl)c2S(=O)(=O)F)c1 ?
Response given: 0

Challenge: How did this test come out for NC(=O)N/N=C\c1ccco1 ?
Response given: 0

Challenge: How did this test come out for CCCN1C(=O)C=CC1=O ?
Response given: 0

###

Each entry below carries its reported T/C.
- Test system: L1210 leukemia ip in BDF1 mice, survival T/C
- TEST_SUMMARY: NCI In Vivo Anticancer Drug Screen. Data for tumor model L1210 Leukemia (intraperitoneal) in B6D2F1 (BDF1) mice
- CONDITIONS_USED: endpoint: mean survival time; dose: 100.0 mg/kg/injection; schedule: Q04DX002 (ip); vehicle: Klucel (hydroxypropylcellulose) (HPC); higher = longer survival
Inconclusive results and toxic doses are left out.

COMPOUND	T/C
O=S(=O)(CCCl)c1ccc(Br)cc1	101 % of control
O=S1C=Cc2ccccc21 (configuration not stated)	101 % of control
COc1cc(Cn2cccc2/C=N/NC(N)=S)c([N+](=O)[O-])cc1OC	93 % of control
Cc1ccc(-n2ccnc2)c(N=Cc2ccc(N(CCCl)CCCl)cc2Cl)c1	102 % of control
CCOC(=O)CNc1cccc(C)c1	100 % of control

For record CC(C)(C)Nc1ccc(F)cc1 the listed T/C is 106 % of control

For record Cc1ccc(CNC(=O)Nc2cccc(Cl)c2)cc1 the listed T/C is 115 % of control
